All figures here come from ChEMBL document CHEMBL3616448.

# Assay Details: Lipophilicity, log D of the compound
# Type: physicochemical
# Details: octanol/water
Readout Kind: logD
Please respond with just the number, no unit label.

# count of solved cases: 2
> print(dat)
                            molecule  measured.number
1       NC(=O)c1nc(-c2cccs2)nc(O)c1O             -0.4
2  CNC(=O)c1nc(-c2cccs2)[nH]c(=O)c1O              0.5

Turning to the following molecule.
Endpoint output: logD of CCC(C)NC(=O)c1nc(-c2cccs2)[nH]c(=O)c1O (stereo not drawn) . Value? 2.1

###

# Experimental Target: Deoxyribonuclease-1 (Homo sapiens, UniProt P24855)
# Sequence (P24855 whole entry): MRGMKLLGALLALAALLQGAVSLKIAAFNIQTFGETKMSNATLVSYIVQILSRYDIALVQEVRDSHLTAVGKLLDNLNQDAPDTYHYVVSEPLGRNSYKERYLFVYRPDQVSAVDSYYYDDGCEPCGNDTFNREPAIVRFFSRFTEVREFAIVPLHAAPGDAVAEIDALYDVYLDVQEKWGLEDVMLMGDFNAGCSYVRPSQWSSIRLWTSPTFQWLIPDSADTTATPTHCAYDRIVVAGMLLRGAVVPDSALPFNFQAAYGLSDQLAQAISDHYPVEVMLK
Recorded IC50, one value per entry.

Endpoint output: IC50 of `CC(=O)Nc1ccc2[nH]c(=O)n(O)c(=O)c2c1` . Value? 87 µM

Entry to check: `O=c1c2ccsc2n(Cc2ccccc2)c(=O)n1O` > 100 µM

Entry to check: `CC(=O)NCCNC(=O)c1nc(-c2cccs2)[nH]c(=O)c1O` 62.6 µM

Entry to check: `O=c1[nH]c2cc(Nc3ccccc3)ccc2c(=O)n1O` 30.2 µM

Entry to check: `CCCNC(=O)c1nc(-c2cccs2)[nH]c(=O)c1O` > 100 µM

Entry to check: `O=c1[nH]c2c(-c3ccccc3)csc2c(=O)n1O` > 100 µM

Entry to check: `Cn1c(=O)n(O)c(=O)c2ccccc21` > 100 µM

Entry to check: `COC(=O)c1nc(-c2ccccc2)[nH]c(=O)c1O` > 100 µM

Entry to check: `O=C(Nc1cccnc1)c1nc(-c2cccs2)[nH]c(=O)c1O` > 100 µM

Entry to check: `O=c1[nH]c2ccccc2c(=O)n1O` > 100 µM

Entry to check: `O=c1[nH]c2sccc2c(=O)n1O` > 100 µM

Entry to check: `O=C(O)c1nc(-c2ccccc2)nc(O)c1O` > 100 µM

Entry to check: `COC(=O)c1nc(-c2cccs2)nc(O)c1O` > 100 µM

Entry to check: `O=C(NCc1ccc(F)cc1)c1nc(-c2cccs2)nc(O)c1O` > 100 µM

###

The listing below reports pIC50 for compounds tested on Flap endonuclease 1 (Homo sapiens).
Sequence (P39748 whole entry): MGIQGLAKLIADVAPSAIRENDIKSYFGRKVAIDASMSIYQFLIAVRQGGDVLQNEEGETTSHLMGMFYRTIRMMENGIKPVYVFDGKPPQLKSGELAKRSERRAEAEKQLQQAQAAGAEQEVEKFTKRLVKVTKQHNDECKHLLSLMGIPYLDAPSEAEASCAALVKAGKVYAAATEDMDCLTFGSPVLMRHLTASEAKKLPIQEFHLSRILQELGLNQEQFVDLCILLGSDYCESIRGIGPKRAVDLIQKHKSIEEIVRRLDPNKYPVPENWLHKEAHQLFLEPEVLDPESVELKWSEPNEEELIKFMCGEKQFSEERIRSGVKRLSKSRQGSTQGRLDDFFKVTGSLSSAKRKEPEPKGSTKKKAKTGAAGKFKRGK
Remember the convention: pIC50 equals -log10 of concentration in molar.

# count of solved cases: 2
> print(dat)
                                   compound  measured.number
1  CC(C)CCNC(=O)c1nc(-c2ccc(CN3CCOCC3)cc2)[nH]c(=O)c1O             4.42
2   CC(C)CCNC(=O)c1nc(-c2cccs2)[nH]c(=O)c1O             5.46

Endpoint output: pIC50 of CCC(C)NC(=O)c1nc(-c2cccs2)[nH]c(=O)c1O (stereo not given) . Value? 5.89

Entry to check: `Cn1c(-c2cccs2)nc(C(=O)O)c(O)c1=O` 4.05

Entry to check: `O=c1[nH]c2sccc2c(=O)n1O` 8.05

Entry to check: `O=c1[nH]c2c(-c3ccccc3)csc2c(=O)n1O` 8.52

Entry to check: `O=C(O)c1nc(-c2cccs2)nc(O)c1O` 4.98

Entry to check: `CNC(=O)c1nc(-c2cccs2)[nH]c(=O)c1O` 4.92

Entry to check: `CC(=O)NCCNC(=O)c1nc(-c2cccs2)[nH]c(=O)c1O` 5.30

Entry to check: `O=c1cc(-c2ccccc2)[nH]c(=O)n1O` 6.20

Entry to check: `O=C(O)c1nc(-c2ccccc2)nc(O)c1O` 4.79

Entry to check: `O=C(c1nc(-c2cccs2)[nH]c(=O)c1O)N1CCCC1` 4.86
